Test system: CCRF-CEM leukemia
Assay Overview: NCI-60 one-dose screen, 48 h
Assay Conditions: 10 µM unless noted
About 83,000 compounds went through this panel and 20% of them were active in at least one assay; those are over-represented in the sample as a whole. Active and inactive are the calls of the source. Rule for the calls: active = growth percent below 10; inactive = the rest.
Outcomes: Y (active), N (inactive)

1. O[C@@H]1Cc2ccc3ccccc3c2N[C@H](c2ccoc2)C1	N
2. N#CCCCCCn1c2ccccc2c2c3c(c4c5ccccc5[nH]c4c21)C(=O)N(O)C3=O	Y
3. COc1ccc(-c2cc(C(=O)Nc3nc4cc(C)c(C)cc4s3)nc3cc(-c4ccccc4)nn23)cc1OC	N
4. O=C1NCN(c2ccccc2)C12CCN(CCCC(c1ccc(F)cc1)c1ccc(F)cc1)CC2	N
5. CC(c1cc(Cl)ccc1O)c1cc(Cl)ccc1O	N
6. Nc1ccc(C2=Nc3cccc4cccc(c34)S2)cc1	N
7. Cn1cc(-c2nc(-c3c[nH]c4ncc(F)cc34)cs2)c2cccnc21	N
8. CN(C)c1nc(N)nc(Cn2c(-c3nonc3N)nc3ccccc32)n1	N
9. Oc1ccccc1/C=N\Nc1ccccc1	N
10. CSc1ncc2ncn(C3OC(CO)C(O)C3O)c2n1 (stereo unspecified)	N
11. O=C(/C(=C/c1ccc([N+](=O)[O-])cc1)c1ccccc1)c1ccccc1	Y
12. Nc1nc(N)c([N+](=O)[O-])c(=O)[nH]1	N
13. COc1ccc(/C=C/C(=O)Nc2cccnc2Nc2ccc(F)cc2)cc1	N
14. O=C(Nc1nc(-c2ccc(Cl)cc2)cs1)c1cc(O)c(O)c(O)c1	Y
15. COc1ccc(Nc2nccc(N3CCN(c4c5ccc(Cl)cc5nc5ccc(OC)cc45)CC3)n2)cc1	Y
16. C[n+]1c2ccccc2c(Nc2ccc(N3CCCCC3)cc2)c2[nH]c3ccccc3c21	Y
17. COc1ccc2nc3cc(Cl)ccc3c(Nc3cc(C(C)C)c(O)cc3C)c2c1	Y
18. CC(C)(C)c1ccc(S(=O)(=O)O)s1	N
19. COc1ccc2nc(-c3ccc(-n4cncc4-c4ccc(OC)c(N)c4)cc3)sc2c1	N
20. COC(=O)[C@]12CC[C@@H](C)[C@H](C)[C@@H]1C1=CC[C@@H]3[C@@]4(C)C[C@@H](OC(=O)c5ccco5)[C@H](O)[C@@](C)(CO)[C@@H]4[C@H](O)C[C@@]3(C)[C@]1(C)CC2	Y
21. O=C(Nc1nc(-c2ccccc2)cs1)c1cc(O)c(O)c(O)c1	Y

---

System: PC-3 prostate
Assay Overview: NCI-60 one-dose screen, 48 h
Assay Conditions: 10 µM unless noted
The panel holds about 83,000 compounds, 20% with a hit somewhere; the sample as a whole holds those more often. The source made the active and inactive calls. Rule for the calls: active = growth percent below 10; inactive = the rest.
Outcomes: active, inactive

1) CC(C)C(=O)Cc1cnccn1	inactive
2) Cn1cc(-c2csc(-c3c[nH]c4ncccc34)n2)c2cc(Br)cnc21	inactive
3) CCC1(c2ccccc2)Oc2ccccc2-n2c(C#N)c3ccccc3c2C1=O (stereo not given)	inactive
4) Cc1cc([N+](=O)[O-])c(C)cc1C(=O)O	inactive
5) CCC[C@H](N[C@@H](C)C(=O)N1[C@H](C(=O)O)C[C@@H]2CCCC[C@@H]21)C(=O)OCC	inactive
6) C/C(=C\CCc1ccsc1)CC/C=C(\C)CCCN1CCC(CO)CC1	inactive
7) C=CCCCCCCCCC(=O)[O][Sn]([CH2]CCC)([CH2]CCC)[CH2]CCC	active
8) OC(CCC(O)(c1ccccc1)c1ccccc1)(c1ccccc1)c1ccccc1	inactive
9) Cc1nnc(Nc2ccc(NC(=O)Nc3ccc(Cl)cc3)cc2)c2ccccc12	inactive
10) COc1ccc2nc(NC(=O)c3cc(-c4ccc(F)cc4)n4nc(-c5ccccc5)cc4n3)sc2c1	inactive
